Values from patent US20250221966A1

system: human RXFP1 (Homo sapiens, UniProt Q9HBX9)
Construct: expressed in transfected cells
Sequence (Q9HBX9 1-757): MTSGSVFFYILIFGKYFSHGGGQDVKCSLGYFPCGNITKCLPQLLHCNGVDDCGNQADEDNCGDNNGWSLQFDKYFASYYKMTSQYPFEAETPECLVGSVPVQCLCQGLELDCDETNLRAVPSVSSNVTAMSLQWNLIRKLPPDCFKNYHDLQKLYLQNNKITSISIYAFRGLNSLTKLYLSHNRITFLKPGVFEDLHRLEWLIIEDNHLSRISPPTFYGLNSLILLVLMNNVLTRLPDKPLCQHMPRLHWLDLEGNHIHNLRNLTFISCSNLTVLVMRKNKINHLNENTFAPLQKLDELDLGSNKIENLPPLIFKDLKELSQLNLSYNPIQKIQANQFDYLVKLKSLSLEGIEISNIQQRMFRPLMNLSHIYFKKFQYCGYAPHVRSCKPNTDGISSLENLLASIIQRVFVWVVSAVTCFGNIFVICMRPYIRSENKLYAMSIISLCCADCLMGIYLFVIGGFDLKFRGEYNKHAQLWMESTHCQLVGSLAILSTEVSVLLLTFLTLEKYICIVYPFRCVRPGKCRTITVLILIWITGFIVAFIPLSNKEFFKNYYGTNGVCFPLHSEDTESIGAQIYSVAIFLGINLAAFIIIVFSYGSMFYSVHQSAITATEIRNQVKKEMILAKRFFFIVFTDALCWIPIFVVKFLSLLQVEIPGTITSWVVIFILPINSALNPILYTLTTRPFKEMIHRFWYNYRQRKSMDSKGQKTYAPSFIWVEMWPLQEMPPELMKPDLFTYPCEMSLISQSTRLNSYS
experiment-notes: RXFP1 cAMP assay (hRXFP1 HEK293 cAMP assay, HTRF)
Format: cell-based
cond: HEK293 cells stably expressing human RXFP1, 30 min at room temperature, read-out: cAMP hRXFP1 HEK293 Assay EC50
Provide the recorded EC50 for the entries that follow.

The cases that follow already have their EC50 on record.
{"compound": "COCC(=O)NC(C(=O)O)c1ccc(F)c(-c2ccc(OC)c(C(=O)N[C@@H]3C4CCC(/C4=C/C(F)(F)F)[C@@H]3C(=O)Nc3ccc(F)c(C(F)(F)F)c3)c2)c1 (some centres unmarked)", "data-value": "4 nM"}
{"compound": "COc1ccc(-c2cc(C(=O)O)ccc2F)cc1C(=O)N[C@@H]1C2CCC(/C2=C/C2CC2)[C@@H]1C(=O)Oc1cccc(-c2nnnn2C)c1 (some centres unmarked)", "data-value": "3830 nM"}
{"compound": "COc1ccc(C2=NOC3CC(CO)CC23)cc1C(=O)N[C@H]1[C@@H](C(=O)Nc2ccc(F)c(C(F)(F)F)c2)[C@H]2CC[C@@H]1/C2=C\\C(F)(F)F (some centres unmarked) [compound 533]", "data-value": "23.4 nM"}
{"compound": "COc1ccc(C2=NO[C@H]3C[C@H](CO)CN23)cc1C(=O)N[C@H]1[C@@H](C(=O)Nc2ccc(F)c(C(F)(F)F)c2)[C@H]2CC[C@@H]1/C2=C\\C1CC1", "data-value": "3.9 nM"}
{"compound": "COc1ccc(-c2cc(C(OC(=O)NC(C)(C)C)C(=O)O)ccc2F)cc1C(=O)N[C@H]1[C@@H](C(=O)Nc2ccc(F)c(C(F)(F)F)c2)[C@H]2CC[C@@H]1/C2=C\\C1CC(F)(F)C1 (some centres unmarked)", "data-value": "2.5 nM"}

State recorded EC50 for all listed compounds.
1. COc1ccc(C2CCOCC2)cc1C(=O)NC1C2CCC(/C2=C/C2CCC2)C1C(=O)Nc1ccc(F)c(C(F)(F)F)c1 (centres unmarked)
2. COc1ccc(C2=NOC3COCC23)cc1C(=O)N[C@H]1[C@@H](C(=O)NC2(C)CCCC2)[C@H]2CC[C@@H]1/C2=C\C1CC1 (some centres unmarked)
3. COc1ccc(-c2cc(C(=O)O)ccc2F)cc1C(=O)N[C@@H]1C2CCC(/C2=C/C2CC2)[C@@H]1C(=O)NC1CC2(CCC2)C1 (some centres unmarked)
4. COc1ccc(C2=NOC3CCCC23)cc1C(=O)N[C@@H]1C2CCC(/C2=C/C2CC2)[C@@H]1C(=O)Nc1ccc(F)c(C(F)(F)F)c1 (some centres unmarked) [compound 440]
5. COc1ccc(C2=NOC(CNC(=O)OC(C)(C)C)C2)cc1C(=O)N[C@@H]1C2CCC(/C2=C/C(F)(F)F)[C@@H]1C(=O)Nc1ccc(F)c(C(F)(F)F)c1 (some centres unmarked)

Completion:
65 nM
10.4 nM
850 nM
25 nM
1390 nM

Prompt: I am curious: what EC50 value has been reported for COc1c(F)cc(C2=NOC3CC(CO)CC23)cc1C(=O)N[C@H]1[C@@H](C(=O)N[C@H](C)C2(C)CC2)[C@H]2CC[C@@H]1/C2=C\C1CC1 (some centres unmarked) ?
Completion: 0.9 nM
